target: Alpha-2C adrenergic receptor (Homo sapiens) (UniProt P18825); experiment: modulators of alpha2C/GIRK thallium flux, primary screen, cell-based, HEK293 alpha2C/GIRK1/2 (AID 624); settings: thallium flux BTC fluorescence, at 10 µM, actives lie on both sides;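 further: slope of fluorescence ratio to pre-addition baseline per second over 15 to 24 s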
Sequence (P18825 whole entry, looked up): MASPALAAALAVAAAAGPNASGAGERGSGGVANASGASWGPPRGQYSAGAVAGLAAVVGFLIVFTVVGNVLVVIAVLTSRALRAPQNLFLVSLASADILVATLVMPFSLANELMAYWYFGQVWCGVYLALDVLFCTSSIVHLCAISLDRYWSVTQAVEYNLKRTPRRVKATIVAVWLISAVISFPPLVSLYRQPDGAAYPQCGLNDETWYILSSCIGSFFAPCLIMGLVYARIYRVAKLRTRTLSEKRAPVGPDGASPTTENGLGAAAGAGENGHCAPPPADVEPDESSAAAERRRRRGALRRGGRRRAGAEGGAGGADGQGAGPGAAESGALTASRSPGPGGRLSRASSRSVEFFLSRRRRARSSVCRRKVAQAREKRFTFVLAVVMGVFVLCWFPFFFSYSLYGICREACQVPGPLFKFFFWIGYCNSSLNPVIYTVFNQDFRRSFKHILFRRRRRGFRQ
experimental-endpoint: slope
Field format: numeric only.

Output measured slope for this item: c1ccc(-c2nc(NCC3CCCO3)c3ccccc3n2)nc1 (stereo unspecified) 0.00509

Retrieve slope measured for O=c1[nH]c(CN2CCCCC2)nc2c1C1(CCCCC1)Cc1ccccc1-2 and print it. 0.0066

Quote slope reported for O=C1CCC(=O)N1CN(C(=O)c1ccco1)c1ccc(Cl)c(Cl)c1 please. 0.00659

Consider the compound Cc1nn2c(-c3ccc(Cl)cc3)nnc2s1 . State its measured slope. 0.00662

Return value of slope for input COc1ccc(S(=O)(=O)N2CCC(N3CCCCC3)CC2)cc1 , no commentary. 0.00443

Identify measured slope corresponding to CCCOc1cc(CN2CCCCC2)cc(C(C)=O)c1 0.00496

Indicate its recorded slope; the compound in question is CC(C)c1nc(NCC2CCCO2)c(C#N)c2c1COC(C)(C)C2 (stereo unspecified) 0.00432

For the compound Cc1cc(N2C(=O)C(=O)/C(=C(/O)c3ccccc3)C2c2cccc(Br)c2)no1 (stereo unspecified) , give its reported slope. 0.00638

Give reported slope value for O=C(O)CCSc1ccc2ccccc2n1 0.00505

Read the entry O=C(NCCCn1ccnc1)C(Cc1ccccc1)N1C(=O)c2ccccc2C1=O (stereo unspecified) and write its reported slope. 0.00809

Respond only with slope recorded for Cc1nnc(NCc2n[nH]c(=O)c3ccccc23)c2ccccc12 0.00499

====

molecular target: Voltage-gated potassium channel subunit beta-2 (Rattus norvegicus) (UniProt P62483); experiment: KvBeta positive modulators, primary screen, biochemical, NADPH fluorescence (AID 623); conditions: Recombinant KvBeta, NADPH fluorescence decrease slope, 10 min; at 10 µM; active compounds read low;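 further: fluorescence intensity change per second fitted from 20 to 320 s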
Sequence (P62483 whole entry, looked up): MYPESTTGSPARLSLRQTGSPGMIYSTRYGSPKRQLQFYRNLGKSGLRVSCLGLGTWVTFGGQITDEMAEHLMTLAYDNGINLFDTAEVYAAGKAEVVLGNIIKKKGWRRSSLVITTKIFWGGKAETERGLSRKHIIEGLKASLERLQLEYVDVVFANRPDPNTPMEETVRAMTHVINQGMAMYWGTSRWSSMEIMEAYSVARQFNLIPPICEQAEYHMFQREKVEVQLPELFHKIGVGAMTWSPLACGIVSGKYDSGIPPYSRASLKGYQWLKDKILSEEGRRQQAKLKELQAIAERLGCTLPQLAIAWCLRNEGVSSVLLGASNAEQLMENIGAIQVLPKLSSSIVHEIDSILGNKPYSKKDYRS
experimental-endpoint: NADPH fluorescence slope
# print the numeric value only

Name the recorded NADPH fluorescence slope of the item CN(C)c1ccc(C2C3C(=O)N(c4ccc(C(=O)O)cc4)C(=O)C3ON2c2ccccc2)cc1 (stereo unspecified) in your answer. -3.3e-05

Supply NADPH fluorescence slope value. Item: Cc1nc2oc(C(=O)c3ccc(Br)cc3)c(N)c2c2c1COC(C)(C)C2 -5.4e-05

Please give the documented NADPH fluorescence slope of O=C(Nc1ccc(Cl)cn1)C1CCCN1S(=O)(=O)c1ccccc1 (stereo unspecified) -4e-05

Please look at this compound and report its NADPH fluorescence slope: COc1cccc(OCCN2CCN(c3ncnc4c3cnn4-c3ccccc3)CC2)c1 -3.9e-05

Provide one value: measured NADPH fluorescence slope of c1ccc2c(CC3=NCCN3)cccc2c1 -6.8e-05

Please report the measured NADPH fluorescence slope for CC(C)(C)C1=Nn2c(nnc2-c2ccco2)SC1 -0.000133

====

test: inhibitors of larval lipid processing in zebrafish, primary screen, whole organism, PED6 fluorescence, gall bladder and intestine (AID 686); settings: Zebrafish larvae PED6 lipid processing, fluorescence scoring; screened at 20 µM (by protocol);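 further: larvae 5 to 7 days old with five fish per well; signal comes from phospholipase A2 cleavage of quenched PED6 carried via bile; overnight exposure to compound and PED6 before scoring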
The source made the active and inactive calls.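 Rule for the calls: active = a full or partial loss of lipid-probe fluorescence in the fish gall bladder, intestine or both, judged by eye; inactive = no fluorescence loss, or compound toxic to the fish.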
Permitted responses: active, inactive

Recorded call for CCCCOc1cc(C(=O)NCCN(CC)CC)c2ccccc2n1 ? inactive

For this molecule, state the assay outcome: CCOP(=O)(c1ccccc1)c1nc(-c2ccccc2C)oc1N1CCCCC1 (stereo not drawn) inactive

GET /call?item= CC1CN(C2CCN(S(=O)(=O)c3ccc4ccccc4c3)CC2)CC(C)O1 (stereo not drawn) returns the recorded outcome of this test. inactive

What did this assay record as the result for Cc1ccc(-n2ncc3c(N4CCN(c5ccccc5)CC4)ncnc32)c(C)c1 ? inactive

What is the recorded call for this molecule in the test? CNc1ccccc1-c1nc2ccccc2n(C)c1=O active

Outcome? CC1(C)CC(=O)C=C(NCc2ccncc2)C1 inactive

Called result for Cc1nn(-c2ccccc2)c2c1C(=O)NC(=O)C(C)(C)C2 inactive

Query: recorded result category for C1CCCN(CCCCN2CCCCCC2)CC1 in this test inactive

Entry CCc1[nH]nc2c1C(c1ccc(Br)s1)C(C#N)=C(N)O2 (stereo not drawn) : call = ? inactive

What was the test verdict on CCOC(=O)c1sc2c(c1C)c(=O)c(C(=O)OCC)cn2CC ? inactive

I'd appreciate the recorded outcome for COc1ccc2c(c1OC)C(=O)N1c3ccccc3SC21 (stereo not drawn) from this test. inactive

Please indicate how the test categorized CCCC(=O)Nc1ncnc2c1ncn2[C@@H]1O[C@@H]2COP(=O)(O)O[C@H]2[C@H]1OC(=O)CCC . inactive

// return assay outcome for CCCCNC(=O)c1c(N)n(/N=C/c2cccnc2)c2nc3ccccc3nc12 inactive

Which result was noted for this molecule in the test: CCCc1cc(C(=O)Cc2ccc(F)cc2)c(O)cc1O inactive

For CC(=O)N=c1sc(S(N)(=O)=O)nn1C , which call appears in the assay record? inactive

Hi team, can someone confirm the assay call for CN(CCO)CC(O)Cn1cnc2c1c(=O)n(C)c(=O)n2C (stereo not drawn) (tested in a mixture with another compound) ? inactive

So what was the verdict on CC(C)Oc1ccc(/C(O)=C2/C(=O)C(=O)N(CCN3CCOCC3)C2c2ccccc2)cc1 (stereo not drawn) in this test? inactive

Would you mind telling me which call this test gave CCCN(CCC)S(=O)(=O)c1ccc(C(=O)O)cc1 ? inactive

Short answer needed: outcome of this test for Fc1ccccc1-c1nc(N2CCCCC2)c2ccccc2n1 ? inactive

Tell me the recorded outcome of this test for O=C(OCC#CCSc1nnc(-c2ccccc2)o1)c1cccs1 . inactive

Which outcome was entered for the molecule CCC1(C)Cc2c(C#N)c(N)sc(=S)c2CO1 (stereo not drawn) in this test? inactive

Record request — test call for N#CC1=C(N)OC2=C(C(=O)CCC2)C1CCc1ccccc1 (stereo not drawn) inactive

What outcome does the record of this test show for CC(=O)NCCCCCCNC(C)=O ? inactive
